target-of-assay: hERG (Homo sapiens)
Sequence (Q12809 whole entry): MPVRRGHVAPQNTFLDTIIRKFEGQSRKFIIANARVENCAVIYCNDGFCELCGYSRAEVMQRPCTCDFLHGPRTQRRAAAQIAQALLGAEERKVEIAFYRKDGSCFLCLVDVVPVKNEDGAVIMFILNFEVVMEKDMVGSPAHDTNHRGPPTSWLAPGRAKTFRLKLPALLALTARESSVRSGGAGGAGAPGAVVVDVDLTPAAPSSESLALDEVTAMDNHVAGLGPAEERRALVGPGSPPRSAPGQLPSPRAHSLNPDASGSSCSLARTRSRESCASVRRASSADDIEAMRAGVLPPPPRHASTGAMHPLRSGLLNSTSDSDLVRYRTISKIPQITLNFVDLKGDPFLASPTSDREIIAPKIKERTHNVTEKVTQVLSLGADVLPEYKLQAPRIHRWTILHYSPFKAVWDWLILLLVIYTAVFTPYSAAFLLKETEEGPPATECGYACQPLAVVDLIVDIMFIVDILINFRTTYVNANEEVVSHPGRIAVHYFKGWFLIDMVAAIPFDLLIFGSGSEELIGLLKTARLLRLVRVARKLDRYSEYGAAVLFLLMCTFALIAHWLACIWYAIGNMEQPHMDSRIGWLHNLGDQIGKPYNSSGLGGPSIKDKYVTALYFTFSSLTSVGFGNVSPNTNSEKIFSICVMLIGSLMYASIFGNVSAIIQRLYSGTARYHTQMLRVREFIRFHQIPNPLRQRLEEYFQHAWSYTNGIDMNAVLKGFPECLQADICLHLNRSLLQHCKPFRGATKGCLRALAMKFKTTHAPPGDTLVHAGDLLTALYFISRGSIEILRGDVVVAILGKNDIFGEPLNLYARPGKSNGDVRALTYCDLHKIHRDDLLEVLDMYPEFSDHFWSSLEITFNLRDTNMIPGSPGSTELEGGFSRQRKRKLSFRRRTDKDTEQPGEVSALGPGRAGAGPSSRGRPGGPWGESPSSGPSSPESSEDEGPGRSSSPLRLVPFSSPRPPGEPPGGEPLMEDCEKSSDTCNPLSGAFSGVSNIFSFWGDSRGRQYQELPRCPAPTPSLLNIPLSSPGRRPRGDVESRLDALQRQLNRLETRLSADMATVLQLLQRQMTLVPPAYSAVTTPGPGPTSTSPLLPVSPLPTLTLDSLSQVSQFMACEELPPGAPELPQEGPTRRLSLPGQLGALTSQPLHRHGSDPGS
method-description: hERG voltage clamp assay
Assay type: cell-based
pIC50: −log10 of the molar value.
measured-endpoint: pIC50

pIC50 for CCOC(=O)N[C@@H]1CC[C@@H]2[C@@H](C1)C[C@H]1C(=O)O[C@H](C)[C@H]1[C@H]2/C=C/c1ccc(-c2cccc(F)c2)cn1.O=S(=O)(O)O [SCH 530348] is ~6.47

----------
Tested on: human platelets
method-description: TRAP stimulated human platelet aggregation
Type: cell-based
measured-endpoint: pIC50
Recall that pIC50 is obtained by taking minus log10 of the concentration measured in molar.

Short answer for CCOC(=O)N[C@@H]1CC[C@@H]2[C@@H](C1)C[C@H]1C(=O)O[C@H](C)[C@H]1[C@H]2/C=C/c1ccc(-c2cccc(F)c2)cn1.O=S(=O)(O)O : pIC50 was 7.82
